Origin of measurements: ChEMBL document CHEMBL4251601

experiment: Half life in CD-1 mouse plasma at 10 mg/kg, po administered as single dose by LC-MS/MS analysis; format: ADME, organism-based
metricName: half-life (h)
The figure you give is taken to be in h; do not add the unit.

Name the reported half-life value associated with the compound CC1=Nc2c(F)cc(-c3nc(Nc4ccc(C5CCN(C)CC5)cn4)ncc3F)cc2C12CCCC2 [CROZBACICLIB]
6.03

---

assay: Half life in ICR mouse at 2 mg/kg, iv administered as single dose by LC-MS/MS analysis; type: ADME, organism-based; settings: in vivo
metricName: half-life (h)
Answer format: numeric, h implied, no suffix.

Bench note: what half-life did CC1=Nc2c(F)cc(-c3nc(Nc4ccc(C5CCN(C)CC5)cn4)ncc3F)cc2C12CCCC2 show?
9.1
